assay: chemical genetic growth profiling, strain panel (AID 1159580);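 also: tested at 20 µM; growth read once vehicle control cultures reached saturation at 30 °C; 1 = growth at the plate median or of vehicle wells; lower values mean less growth of the strain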; details: S. cerevisiae deletion strains, growth OD, locus YHR142W, strain chs7, stronger effect = lower value
Hit rate of the full screen: of about 5,500 compounds, about 2,000 (36%) were called active. About 18% were inconclusive and are not listed. The list shows a part of the results.
A collection of compounds and their measured normalized growth
Hey, just send me the number, nothing else.

COMPOUND	normalized growth
COc1ccc(CCN2CCC(Nc3nc4ccccc4n3Cc3ccc(F)cc3)CC2)cc1	0.888
CC1OC1P(=O)(O)O (stereo unspecified)	1.01
NC(CO)C(=O)NNCc1ccc(O)c(O)c1O (stereo unspecified)	0.964
C=CC(N)CCC(=O)O (stereo unspecified)	0.94
O=C(Cn1ccnc1[N+](=O)[O-])NCCO	1.02
O=C(O)c1ccccc1-c1c2cc(Br)c(=O)cc-2oc2[c]([Hg])c(O)c(Br)cc12	0.951
CC(=O)OCC[C@H](C)CCC=C(C)C	0.988
CN1C(C(=O)Nc2ccccn2)=C(O)c2ccccc2S1(=O)=O	0.951

// normalized growth lookup, key: CC(=O)Oc1c(C)cccc1C(=O)O
1.02

// same read-out, input: CCNC(=O)CC[C@H](N)C(=O)O
1.01

Do the same for CC(C)NNC(=O)c1ccncc1 please
1.03
